Hello, the source for this data is ChEMBL document CHEMBL1150128, in case you need it.

Biological target: UniProt:P06239
Sequence (P06239 2-509 limits assumed): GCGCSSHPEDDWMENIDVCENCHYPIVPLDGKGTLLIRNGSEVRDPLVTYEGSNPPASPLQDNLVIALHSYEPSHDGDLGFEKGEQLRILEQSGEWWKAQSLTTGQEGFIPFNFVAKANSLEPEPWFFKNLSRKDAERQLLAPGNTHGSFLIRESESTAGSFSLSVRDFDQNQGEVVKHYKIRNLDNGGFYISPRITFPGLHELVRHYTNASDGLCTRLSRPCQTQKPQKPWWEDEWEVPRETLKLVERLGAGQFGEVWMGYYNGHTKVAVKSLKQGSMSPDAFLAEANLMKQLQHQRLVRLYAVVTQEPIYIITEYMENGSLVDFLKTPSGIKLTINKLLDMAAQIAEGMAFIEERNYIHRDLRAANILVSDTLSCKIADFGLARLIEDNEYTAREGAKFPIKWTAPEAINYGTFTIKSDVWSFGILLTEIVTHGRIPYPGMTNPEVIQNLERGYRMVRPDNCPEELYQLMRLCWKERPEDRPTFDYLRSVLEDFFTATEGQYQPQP
Experiment: Inhibition of p56lck by ELISA
The source made the active and inactive calls. The calls are words filed in the database; no cut-off is given here.
endpoint name: Activity

Some solved entries appear below for comparison.
C=C(C)C1Cc2c(O)ccc(O[C@@H]3O[C@H](CO)[C@@H](O)[C@H](O)[C@H]3O)c21 (stereo not given in full)
inactive
CC1(C)Oc2ccc(O)cc2CC1O (stereo not given)
inactive
CC(C)(O)C1Cc2cc(O)ccc2O1 (stereo not given)
inactive
C=C(C)C1Cc2c(O)ccc(O)c21 (stereo not given)
inactive

Here is another compound to look at.
# query: Activity of entry `CC(C)=C(CCC(=O)O)C(=O)O`
inactive

====

Target: Human immunodeficiency virus type 1 reverse transcriptase (Human immunodeficiency virus 1)
Test: Inhibition of HIV1 reverse transcriptase by ELISA
Calls of active or inactive are those of the source. No cut-off for these calls is given here.
endpoint name: Activity

Some solved entries appear below for comparison.
CC(C)=C(CCC(=O)O)C(=O)O
inactive
C=C(C)C1Cc2c(O)ccc(O[C@@H]3O[C@H](CO)[C@@H](O)[C@H](O)[C@H]3O)c21 (stereo not given in full)
inactive
CC(C)(O)C1Cc2cc(O)ccc2O1 (stereo not given)
inactive
C=C(C)C1Cc2c(O)ccc(O)c21 (stereo not given)
inactive

Here is another compound to look at.
# query: Activity of entry CC1(C)Oc2ccc(O)cc2CC1O (stereo not given)
inactive
